Source: patent US20260242392A1

assay: Pharmacokinetic (PK) study in ICR mice, IV and PO; settings: ICR, mouse, plasma, iv, 2 mg/kg
property.name: Vd (L/kg)

The following compounds have reported results that may help.
Note to self: Vd recorded for COc1cc2cc(C(=O)CCC(=O)O)sc2cc1OC [MAS-2, reference compound] was 0.343

Note to self: Vd recorded for COc1cc2sc(C(=O)C[C@H](C)C(=O)O)cc2c2cc(F)oc12 [Example 62] was 0.49

(a) COc1cc2sc(C(=O)CCC(=O)O)cc2c2nc(C)oc12 [Example 6]
(b) CC[C@@H](CC(=O)c1cc2c(cc(OC)c3ocnc32)s1)C(=O)O [Compound 51]
From the items above, decide which of a and b has the lower Vd reading. Provide the label of your selected option as the answer.
a
(a: 0.264 L/kg, b: 1.28 L/kg)

(1) COc1cc2sc(C(=O)C[C@H](C)C(=O)O)cc2c2c(F)c(C)oc12 [Compound 59]
(2) COc1cc2sc(C(=O)CCC(=O)O)cc2c2ncoc12 [Compound 1]
Returns: the argument ( 1 or 2 ) having the larger Vd. Provide the label of your selected option as the answer.
2

----------
assay: in vivo; conditions: ICR, mouse, iv, 2 mg/kg
property.name: AUC(0-t) (ng·h/mL)
Form entry: value (ng·h/mL) — number only.

Note to self: AUC(0-t) recorded for COc1cc2sc(C(=O)C[C@H](C)C(=O)O)cc2c2ncoc12 [Example 46] was 3540

Next up:
Note to self: AUC(0-t) recorded for COc1cc2sc(C(=O)CC(C)C(=O)O)cc2c2ncoc12 (centres unmarked) [Example 12] was 1570

----------
target: Sting-HAQ (Homo sapiens, UniProt Q86WV6, G230A/H232R/R293Q/R71H); experiment: HEK293-HAQ Luc reporter gene assay (Steady-Glo luciferase); details: 24 h incubation; read-out: HEK293-HAQ Luc Report Assay (24 h) EC50
Sequence (Q86WV6 whole entry R71H/G230A/H232R/R293Q): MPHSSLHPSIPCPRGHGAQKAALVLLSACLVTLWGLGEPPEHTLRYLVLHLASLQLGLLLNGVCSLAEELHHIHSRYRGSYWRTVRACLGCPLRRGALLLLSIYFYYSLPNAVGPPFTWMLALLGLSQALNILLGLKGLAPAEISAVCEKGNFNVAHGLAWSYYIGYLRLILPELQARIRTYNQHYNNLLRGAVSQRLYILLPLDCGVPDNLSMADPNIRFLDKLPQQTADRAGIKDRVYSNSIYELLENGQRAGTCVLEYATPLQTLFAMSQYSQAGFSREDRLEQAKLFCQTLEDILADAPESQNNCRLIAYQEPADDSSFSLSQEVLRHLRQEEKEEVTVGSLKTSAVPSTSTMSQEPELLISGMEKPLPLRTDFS
property.name: EC50 (µM)

Sting-HAQ (Homo sapiens, UniProt Q86WV6, G230A/H232R/R293Q/R71H) data for COc1cc2sc(C(=O)C[C@H](C)C(=O)O)cc2c2cc(C)oc12 [drawing 660] ; its EC50: 0.341

Sting-HAQ (Homo sapiens, UniProt Q86WV6, G230A/H232R/R293Q/R71H) data for COc1cc2sc(C(=O)C[C@H](C)C(=O)O)nc2c2nc(C)oc12 ; its EC50: 4.18

Sting-HAQ (Homo sapiens, UniProt Q86WV6, G230A/H232R/R293Q/R71H) data for [2H]c1c(C)oc2c(OC)cc3sc(C(=O)C[C@H](C)C(=O)O)cc3c12 ; its EC50: 0.313

(A) COc1cc2sc(C(=O)CCC(=O)O)cc2c2ccsc12
(B) COc1cc2sc(C(=O)CCC(=O)O)cc2c2ncoc12 [drawing 622]
(C) COc1cc2sc(C(=O)C(C)CC(=O)O)nc2c2nc(C)oc12 (centres unmarked)
(D) CCC(CC(=O)c1cc2c(cc(OC)c3oc(C)nc32)s1)C(=O)O (centres unmarked)
(E) CCC(CC(=O)c1cc2c(cc(OC)c3oc(F)cc32)s1)C(=O)O (centres unmarked)
Hey, can you sort those compounds up there by EC50, smallest first? I would appreciate it if you listed the labels in the requested order.
D, E, B, A, C

(a) COc1cc2sc(C(=O)C[C@H](C)C(=O)O)cc2c2cc(F)oc12 [drawing 673]
(b) [2H]C([2H])([2H])Oc1cc2sc(C(=O)C[C@H](C)C(=O)O)cc2c2cc(F)oc12
(c) COc1cc2sc(C(=O)CC(C)C(=O)O)nc2c2cc(C)oc12 (centres unmarked)
(d) COc1cc2sc(C(=O)CC(C)C(=O)O)cc2c2cc(C)oc12 (centres unmarked)
Task field, ranking: reported EC50, descending order. I would appreciate it if you listed the labels in the requested order.
c, d, a, b
